Where do these numbers come from? They come from patent US20050209157A1.

- Test system: S. typhimurium 14028S
- Assay type: cell-based, Salmonella typhimurium
- condition-context: mean of three; 16 to 20 hours at 35° C.; in µg/mL
No end group written: not given here.
readout: S. typhimurium 14028S MIC
Keep it simple and answer with nothing but the number.

substance	observed-measurement
FAKKLAKLAKKLAKAL-NH2 [P109]	32
FAKKLLAKALKL-NH2 [P110]	32
MPKWKVFKKIEKVGRNIRNGIVKAGPAIAVLGEAKALG-NH2 [P12, reference compound]	4

With those in mind, consider the next substance.
Measured S. typhimurium 14028S MIC, FAKKLAKKLKKLAKLALAL-OH [P29] : 8
